- tested-on: Human squalene epoxidase (Homo sapiens, UniProt Q14534)
- Construct: endogenous in cells
- Sequence (Q14534 whole entry): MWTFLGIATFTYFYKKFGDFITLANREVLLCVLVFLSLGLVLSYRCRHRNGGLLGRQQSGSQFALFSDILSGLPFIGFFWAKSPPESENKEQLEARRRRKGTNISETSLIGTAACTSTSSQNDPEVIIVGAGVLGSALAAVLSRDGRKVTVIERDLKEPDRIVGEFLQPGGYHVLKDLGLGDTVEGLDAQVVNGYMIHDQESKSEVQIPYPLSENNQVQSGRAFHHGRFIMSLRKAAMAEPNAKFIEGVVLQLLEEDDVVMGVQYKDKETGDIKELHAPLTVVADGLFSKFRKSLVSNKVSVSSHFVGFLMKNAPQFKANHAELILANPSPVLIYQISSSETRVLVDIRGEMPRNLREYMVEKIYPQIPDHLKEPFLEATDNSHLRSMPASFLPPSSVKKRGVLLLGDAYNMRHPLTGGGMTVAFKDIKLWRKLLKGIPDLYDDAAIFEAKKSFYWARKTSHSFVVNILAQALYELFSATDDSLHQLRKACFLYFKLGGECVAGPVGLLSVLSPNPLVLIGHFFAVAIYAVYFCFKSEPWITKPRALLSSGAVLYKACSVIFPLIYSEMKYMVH
- experimental-protocol: Human squalene epoxidase inhibition action
- condition: solubilized squalene epoxidase fraction from human hepatoma (Hep-G2) cells; 8 μM 3H-squalene; 37° C., 60 minutes; pH 7.5; read-out: 50% inhibitory concentration (IC50)
Counter-ions that a name gives are not always drawn.
measurement-type: IC50 (nM)

{"columns": ["compound", "IC50 / nM"],
 "data": [
  ["CCN(C/C=C/C#CC(C)(C)OC)Cc1ccc(COC/C=C/c2ccsc2)o1 [Example 30, hydrochloride]", 0.8]
]}

P = CCN(CC#CC#CC(C)(C)OC)Cc1ccc(/C=C/COCc2ccsc2)o1
Q = CN(C/C=C/C#CC(C)(C)C)Cc1ccc(COC/C=C/c2ccsc2)o1
Hey, which is lower on measured IC50, P or Q ? Pick one and reply with its label. Q

The values you see were collected from patent US5439932A.
